# test.system: F protein of wild type RSV A/Long (respiratory syncytial virus strain …, UniProt P12568 26-574)
# Sequence (P12568 26-574): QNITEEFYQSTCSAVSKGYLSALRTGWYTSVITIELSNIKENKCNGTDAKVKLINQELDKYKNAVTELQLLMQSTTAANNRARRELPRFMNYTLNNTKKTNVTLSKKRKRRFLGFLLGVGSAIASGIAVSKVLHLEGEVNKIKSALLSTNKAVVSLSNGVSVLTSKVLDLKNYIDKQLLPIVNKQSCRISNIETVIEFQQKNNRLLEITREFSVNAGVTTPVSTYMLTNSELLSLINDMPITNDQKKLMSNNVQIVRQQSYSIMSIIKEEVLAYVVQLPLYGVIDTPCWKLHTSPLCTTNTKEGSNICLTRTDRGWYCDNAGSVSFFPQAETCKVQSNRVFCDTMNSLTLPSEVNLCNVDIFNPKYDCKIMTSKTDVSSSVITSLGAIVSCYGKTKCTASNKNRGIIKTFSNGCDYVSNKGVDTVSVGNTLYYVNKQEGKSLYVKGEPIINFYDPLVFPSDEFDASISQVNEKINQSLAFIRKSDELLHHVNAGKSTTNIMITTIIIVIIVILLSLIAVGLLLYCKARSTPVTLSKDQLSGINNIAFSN
# protocol.details: cell-based or functional assay
assay.endpoint: Mean IC50 (Control), RSV microneutralization (µg/mL)
Give the value in µg/mL but do not write µg/mL after it.

binder	obs.value
A1e9 (Fab fragment) (Fab, V domains shown, Fab; also called *Ale9) VH: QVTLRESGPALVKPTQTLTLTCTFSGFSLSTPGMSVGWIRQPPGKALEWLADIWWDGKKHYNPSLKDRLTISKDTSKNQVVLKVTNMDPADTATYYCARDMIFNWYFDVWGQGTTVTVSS VL: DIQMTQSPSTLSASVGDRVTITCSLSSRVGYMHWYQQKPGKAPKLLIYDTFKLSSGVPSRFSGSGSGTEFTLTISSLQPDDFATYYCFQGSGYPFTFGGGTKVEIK	0.125
P12f2 (monoclonal antibody) (antibody, V domains shown, mAb with framework and constant regions of SYNAGIS; also called Pf12) VH: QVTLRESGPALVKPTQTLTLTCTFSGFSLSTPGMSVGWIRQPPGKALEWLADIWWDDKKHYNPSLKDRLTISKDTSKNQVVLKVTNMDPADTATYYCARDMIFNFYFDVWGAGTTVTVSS VL: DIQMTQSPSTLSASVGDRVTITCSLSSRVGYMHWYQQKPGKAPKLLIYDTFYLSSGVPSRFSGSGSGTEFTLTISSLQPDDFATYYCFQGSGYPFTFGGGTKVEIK	0.0223
A12a6 (monoclonal antibody) (antibody, V domains shown, mAb with framework and constant regions of SYNAGIS) VH: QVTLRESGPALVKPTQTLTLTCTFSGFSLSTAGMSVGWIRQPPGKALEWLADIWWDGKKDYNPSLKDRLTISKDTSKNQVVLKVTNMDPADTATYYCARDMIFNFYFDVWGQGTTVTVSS VL: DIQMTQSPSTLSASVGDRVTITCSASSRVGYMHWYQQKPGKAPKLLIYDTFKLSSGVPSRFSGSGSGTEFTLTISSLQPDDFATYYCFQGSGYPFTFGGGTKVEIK	0.0354
P12f2 (Fab fragment) (Fab, V domains shown, Fab) VH: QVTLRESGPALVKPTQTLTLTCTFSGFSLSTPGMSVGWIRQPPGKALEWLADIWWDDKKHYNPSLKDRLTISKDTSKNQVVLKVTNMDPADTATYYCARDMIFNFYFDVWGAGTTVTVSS VL: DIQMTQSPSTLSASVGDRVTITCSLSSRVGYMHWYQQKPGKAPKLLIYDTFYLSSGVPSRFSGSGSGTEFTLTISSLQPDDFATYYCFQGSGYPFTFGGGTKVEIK	0.0326

// next entry
Name the recorded Mean IC50 (Control), RSV microneutralization of the item A17d4 (monoclonal antibody) (antibody, V domains shown, mAb with framework and constant regions of SYNAGIS) VH: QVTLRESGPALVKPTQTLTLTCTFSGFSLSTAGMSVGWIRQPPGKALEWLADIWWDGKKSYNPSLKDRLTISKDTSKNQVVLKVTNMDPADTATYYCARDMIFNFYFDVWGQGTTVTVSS VL: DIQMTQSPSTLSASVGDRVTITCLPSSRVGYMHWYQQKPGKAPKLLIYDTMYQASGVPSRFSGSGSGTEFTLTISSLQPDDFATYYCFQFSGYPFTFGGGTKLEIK in your answer.
0.0354
